Would you kindly list IC50 for each of these compounds?
target: Isocitrate dehydrogenase [NADP] cytoplasmic (Homo sapiens, UniProt O75874, R132H); assay: Inhibition of human C-terminal His8-tagged IDH1-R132H mutant expressed in Escherichia coli Rosetta assessed as inhibition of ketoreductase activity by measuring NADPH consumption preincubated for 60 mins followed by addition of alpha-KG as substrate measured after 50 mins in presence of NADPH and Mg2+ by resazurin based diaphorase-coupled fluorescence assay
Sequence (O75874 2-414 R132H limits assumed): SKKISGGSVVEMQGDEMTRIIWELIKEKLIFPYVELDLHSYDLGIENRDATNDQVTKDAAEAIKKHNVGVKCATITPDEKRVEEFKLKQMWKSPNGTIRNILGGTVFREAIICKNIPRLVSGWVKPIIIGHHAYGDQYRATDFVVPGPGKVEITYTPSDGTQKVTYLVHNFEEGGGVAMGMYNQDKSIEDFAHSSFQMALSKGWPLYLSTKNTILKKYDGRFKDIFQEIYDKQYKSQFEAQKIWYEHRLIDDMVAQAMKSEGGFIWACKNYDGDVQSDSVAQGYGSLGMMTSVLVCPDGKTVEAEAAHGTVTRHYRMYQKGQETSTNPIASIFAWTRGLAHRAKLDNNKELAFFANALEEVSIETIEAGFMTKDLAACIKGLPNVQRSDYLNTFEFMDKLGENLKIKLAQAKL
Give the value in nM but do not write nM after it.

Ask | Value lookup for IC50; key = C[C@@H]1CN([C@@H](C)CO)S(=O)(=O)c2ccc(C#CC3CCCCC3)cc2O[C@H]1CN(C)C(=O)NC1CCCCC1
Reply | 90

Ask | Try C[C@@H]1CN([C@@H](C)CO)S(=O)(=O)c2ccc(C#Cc3ccccc3F)cc2O[C@H]1CN(C)C(=O)NC1CCCCC1 next.
Reply | 91

Ask | Try C[C@@H]1CN([C@@H](C)CO)S(=O)(=O)c2ccc(C#Cc3cccc(Cl)c3)cc2O[C@H]1CN(C)C(=O)NC1CCCCC1 next.
Reply | 60

Ask | Try COc1ccc(C#Cc2ccc3c(c2)O[C@@H](CN(C)C(=O)NC2CCCCC2)[C@H](C)CN([C@@H](C)CO)S3(=O)=O)cc1 next.
Reply | 91

Ask | Try C[C@@H]1CN([C@@H](C)CO)S(=O)(=O)c2ccc(C#Cc3ccc(F)c(F)c3)cc2O[C@H]1CN(C)C(=O)NC1CCCCC1 next.
Reply | 28

Ask | Try C[C@@H]1CN([C@@H](C)CO)S(=O)(=O)c2ccc(C#Cc3cccnc3)cc2O[C@H]1CN(C)C(=S)NC1CCCCC1 next.
Reply | 160

Ask | Try C[C@@H]1CN([C@@H](C)CO)S(=O)(=O)c2ccc(C#Cc3cccc(F)c3)cc2O[C@H]1CN(C)C(=O)N(C)C1CCCCC1 next.
Reply | 5700

====

target: Isocitrate dehydrogenase [NADP] cytoplasmic (Homo sapiens, UniProt O75874, R132H); assay: Inhibition of human C-terminal His8-tagged IDH1-R132H mutant expressed in Escherichia coli Rosetta assessed as inhibition of ketoreductase activity by measuring NADPH consumption preincubated for 60 mins followed by addition of alpha-KG as substrate measured after 50 mins in presence of NADPH and Mg2+ by resazurin based diaphorase-coupled fluorescence assay
valueKind: IC50 (µM)
Give the value in µM but do not write µM after it.

Ask | Value lookup for IC50; key = C[C@@H]1CN([C@@H](C)CO)S(=O)(=O)c2ccc(C#Cc3cccnc3)cc2O[C@H]1CCC(=O)NC1CCCCC1
Reply | 9.1

Ask | Try C[C@@H]1CN([C@@H](C)CO)S(=O)(=O)c2ccc(C#Cc3cncnc3)cc2O[C@H]1CN(C)C(=O)NC1CCCCC1 next.
Reply | 0.32

Ask | Try C[C@@H]1CN([C@H](C)CO)S(=O)(=O)c2ccc(C#Cc3cccc(F)c3)cc2O[C@@H]1CN(C)C(=O)NC1CCCCC1 next.
Reply | 5.3

Ask | Try C[C@@H]1CN([C@@H](C)CO)S(=O)(=O)c2ccc(C#Cc3cccc(F)c3)cc2O[C@H]1CN(C)C(=O)Nc1ccccc1 next.
Reply | 3.1
